This collection of values is drawn from ChEMBL document CHEMBL1909618.

Species on record: Homo sapiens
Assay: Selectivity ratio of IC50 for human recombinant glucocorticoid receptor to IC50 for human recombinant progesterone receptor
Measured Ratio IC50 accompanies every entry in the list below.

{"compound": "CC(C)(CC(O)(Cc1cc2ccccc2[nH]1)C(F)(F)F)c1cc(C#N)cc2c1OCC2 (racemic)", "sign": "=", "Ratio IC50": 50}
{"compound": "CCc1cccc2[nH]c(CC(O)(CC(C)(C)c3cc(F)ccc3OC)C(F)(F)F)cc12 (racemic)", "sign": "=", "Ratio IC50": 30}
{"compound": "COc1ccc(F)cc1C(C)(C)CC(O)(Cc1cc2c(C#N)cccc2[nH]1)C(F)(F)F (racemic)", "sign": "=", "Ratio IC50": 90}
{"compound": "CC(C)(C[C@@](O)(Cc1cc2ccc(C#N)cc2[nH]1)C(F)(F)F)c1cc(S(C)(=O)=O)cc2c1OCC2", "sign": "=", "Ratio IC50": 100}
{"compound": "CC(C)(CC(O)(Cc1cc2ccccc2[nH]1)C(F)(F)F)c1cc(S(C)(=O)=O)cc2c1OCC2 (racemic)", "sign": ">", "Ratio IC50": 300}
{"compound": "COc1ccc(F)cc1C(C)(C)CC(O)(Cc1cc2cc(C#N)ccc2[nH]1)C(F)(F)F (racemic)", "sign": "=", "Ratio IC50": 100}
{"compound": "COc1ccc(F)cc1C(C)(C)CC(O)(Cc1cc2ccc(C#N)cc2[nH]1)C(F)(F)F (racemic)", "sign": "=", "Ratio IC50": 30}

###

Item-by-item account of Efficacy
Target: UniProt:P04150
Sequence (whole entry): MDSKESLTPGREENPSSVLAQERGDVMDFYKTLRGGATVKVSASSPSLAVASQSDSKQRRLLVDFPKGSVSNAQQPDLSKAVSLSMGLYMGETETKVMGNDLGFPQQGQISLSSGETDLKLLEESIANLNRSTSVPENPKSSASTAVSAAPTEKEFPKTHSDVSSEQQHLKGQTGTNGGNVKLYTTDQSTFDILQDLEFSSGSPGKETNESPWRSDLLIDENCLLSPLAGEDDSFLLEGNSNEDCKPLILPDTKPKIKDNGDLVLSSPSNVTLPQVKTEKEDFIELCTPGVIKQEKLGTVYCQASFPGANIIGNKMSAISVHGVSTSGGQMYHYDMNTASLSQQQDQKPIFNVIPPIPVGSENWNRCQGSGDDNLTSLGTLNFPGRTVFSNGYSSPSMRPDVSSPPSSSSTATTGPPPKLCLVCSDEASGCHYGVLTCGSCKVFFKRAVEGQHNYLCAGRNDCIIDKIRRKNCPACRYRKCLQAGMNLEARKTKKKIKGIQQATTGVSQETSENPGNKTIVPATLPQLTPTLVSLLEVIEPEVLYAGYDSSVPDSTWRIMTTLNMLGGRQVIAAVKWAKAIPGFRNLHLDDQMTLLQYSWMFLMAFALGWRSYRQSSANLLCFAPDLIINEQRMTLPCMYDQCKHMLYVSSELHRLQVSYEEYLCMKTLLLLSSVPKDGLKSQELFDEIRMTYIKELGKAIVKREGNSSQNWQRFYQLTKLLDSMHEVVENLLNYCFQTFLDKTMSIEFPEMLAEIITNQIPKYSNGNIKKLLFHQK
Assay: Agonist activity at glucocorticoid receptor in HFF assessed as inhibition of IL1-induced IL-6 production after 18 to 24 hrs relative to Dexamethasone
Format: functional
measure_name: Efficacy (%)

{"compound": "CC(C)(CC(O)(Cc1cc2ccc(C#N)cc2[nH]1)C(F)(F)F)c1cc(S(C)(=O)=O)cc2c1OCC2 (racemic)", "reported_value": 89}
{"compound": "COc1ccc(F)cc1C(C)(C)CC(O)(Cc1cc2c(C(F)(F)F)cccc2[nH]1)C(F)(F)F (racemic)", "reported_value": 70}
{"compound": "COc1ccc(F)cc1C(C)(C)CC(O)(Cc1cc2c(C#N)cccc2[nH]1)C(F)(F)F (racemic)", "reported_value": 91}
{"compound": "CCc1cccc2[nH]c(CC(O)(CC(C)(C)c3cc(F)ccc3OC)C(F)(F)F)cc12 (racemic)", "reported_value": 90}
{"compound": "COc1ccc(F)cc1C(C)(C)CC(O)(Cc1cc2c(C)cccc2[nH]1)C(F)(F)F (racemic)", "reported_value": 91}
{"compound": "COc1ccc(F)cc1C(C)(C)C[C@](O)(Cc1cc2ccccc2[nH]1)C(F)(F)F", "reported_value": 20}
{"compound": "CC(C)(CC(O)(Cc1cc2ccccc2[nH]1)C(F)(F)F)c1cc(C#N)cc2c1OCC2 (racemic)", "reported_value": 65}
{"compound": "COc1ccc(F)cc1C(C)(C)CC(O)(Cc1cc2ccc(C#N)cc2[nH]1)C(F)(F)F (racemic)", "reported_value": 91}
